// reported TGI per item
System: SN12C renal
procedure.details: NCI tumour cell line growth inhibition, 48 h

| molecule | TGI |
| --- | --- |
| N#Cc1c(N)nc(N2CCOCC2)c(C#N)c1-c1ccc(Cl)cc1Cl | 43.3 µM |

The reported SN12C renal TGI of CC(=O)OC1C(C)OC(OC2C[C@](O)(C(C)=O)Cc3c(O)c4c(c(O)c32)C(=O)c2ccccc2C4=O)C(F)C1OC(C)=O (stereo partly drawn) is 7.76 µM

====

System: LOX IMVI melanoma
procedure.details: NCI tumour cell line growth inhibition, 48 h
outcome.measure: TGI (µM)
The reply should contain only the number, in µM.

Field: example entries. Status: answers known.
| molecule | experimental.system | unit.spec | endpoint.result |
| --- | --- | --- | --- |
| O=C(/C=C/c1ccc(OCC(=O)N2CCN(c3ccccc3)CC2)cc1)c1ccccc1 | LOX IMVI melanoma | µM | 10.7 |
| O=C(Nc1cccc(C(F)(F)F)c1)Nc1ccc(OCc2nnc(-c3ccccc3)o2)c(F)c1 | LOX IMVI melanoma | µM | 25.6 |
| CC(C)(C)OC(=O)NCCCCC1NC(=O)[C@@H]2Cc3c([nH]c4ccccc34)C(c3ccccc3)N2C1=O (stereo not given in full) | LOX IMVI melanoma | µM | 56.4 |

Recorded result, `O=C(/C=C/N1CCN(c2cccc(Cl)c2)CC1)c1ccc(Cl)cc1` , TGI: 96.9

====

// reported TGI per item
Tested on: U251 CNS
procedure.details: NCI tumour cell line growth inhibition, 48 h

Field: example entries. Status: answers known.
| molecule | experimental.system | endpoint.result |
| --- | --- | --- |
| Cc1cc2c(SCc3ccccc3Cl)nc(N)nc2nc1C | U251 CNS | > 100 µM |
| O=C(Nc1ccccc1)Oc1ccccc1C1CCCCC1 | U251 CNS | 30.7 µM |
| CCCCSC1=N/C(=C\c2ccccc2O)C(Cl)=N1 | U251 CNS | > 100 µM |
| CCNC(=O)O/N=C1/C=C2CC[C@@H]3C(CC[C@@]4(C)C3CC[C@@H]4OC(=O)NCC)[C@@]2(C)CC1 (stereo partly drawn) | U251 CNS | 5.28 µM |
| CC(=O)OC/C=C/Cn1nc(Br)c(=O)[nH]c1=O | U251 CNS | > 100 µM |
| Cc1ccc(C)c(C(=O)CC2OC(O)C(Cl)C2Cl)c1 (stereo not drawn) | U251 CNS | > 100 µM |
| CC(C)=C[C@@H]1C[C@H](C)[C@H]2CC[C@H](C)[C@H]3C(=O)C(O)=C(C)C(=O)[C@]123 | U251 CNS | > 100 µM |

Recorded result, `N/N=C(\N)SCc1ccc(N=C=S)cc1` , TGI: > 100 µM

====

Tested on: U251 CNS
procedure.details: NCI tumour cell line growth inhibition, 48 h
// reported TGI per item

| compound | TGI |
| --- | --- |
| CC(=O)OCc1cc2c(s1)C(=O)c1sccc1C2=O | 0.706 µM |
| O=C(Cn1c(-c2ccccc2)cc2ccccc21)N1CCOCC1 | > 100 µM |
| COC(=O)N/N=C(\c1nc2ccc(Cl)cc2[nH]c1=O)C(O)c1ccc([N+](=O)[O-])cc1 (stereo unspecified) | > 100 µM |
| CN(C)c1ccc(/C=C2\Cc3ccccc3C2=O)cc1Br | > 100 µM |
| COC(=O)C1=C(C)C(=O)C2(CCCCCC2C(=O)OC)C1 (stereo unspecified) | > 100 µM |

Next compound, TGI to be filled in.
Recorded result, COc1cc(CC2C(=O)OCC2Cc2ccc(OC)c(OC)c2)ccc1O (stereo unspecified) , TGI: > 100 µM

====

System: NCI/ADR-RES ovarian
procedure.details: NCI tumour cell line growth inhibition, 48 h
Assign class by TGI: not lower than 30 µM means Criterion met; lower than 30 µM means Criterion not met.

Example cases with answers are listed next.
| compound | label |
| --- | --- |
| CCOC(=O)C1(NC(=O)OC(C)(C)C)CCc2[nH]oc(=O)c2C1 (stereo not given) | Criterion met |
| O=C(c1ccccc1)n1c2ccc(Br)cc2c2nc3ccccc3nc21 | Criterion met |
| O=[N+]([O-])c1cccc2c1[nH]c1c(-c3ccccc3)nccc12 | Criterion not met |
| COc1cc(-c2nn(-c3cccc(NC(=O)c4cccc(C(F)(F)F)c4)c3)cc2-c2ccncc2)ccc1Cl | Criterion not met |
| COc1ccc(-c2ccc(/C=N/n3c(COc4ccc(Cl)c(C)c4)nn(CN4CCOCC4)c3=S)o2)c([N+](=O)[O-])c1 | Criterion met |

Asked: Is TGI at least 30 µM? Consider `c1csc(-c2[nH]nc3c2CCc2ccccc2-3)c1`
Given back: Criterion met

Asked: Is TGI at least 30 µM? Consider `COc1ccc(NC(=S)Nc2cccc(C)n2)cc1`
Given back: Criterion met

====

// reported TGI per item
Test system: SF-539 CNS
procedure.details: NCI tumour cell line growth inhibition, 48 h
The reply should contain only the number, in µM.

Field: example entries. Status: answers known.
| compound | TGI [µM] |
| --- | --- |
| Cn1nc(-c2ccccc2)c(C(=O)/C=C/c2ccccc2)c(N2CCCC2)c1=O | 26.3 |
| O=P1(C(O)c2ccccc2)N(Cc2ccccc2)[C@@H]2CCCC[C@H]2N1Cc1ccccc1 (stereo not given in full) | 45.6 |

Recorded result, `CCN(CCCl)c1ccc(NC(=O)c2cc(C(=O)NCCN(C)C)cc(C(=O)Nc3ccc(N(CC)CCCl)cc3)c2)cc1` , TGI: 12.3

Recorded result, `CC(=O)Oc1cc(OC(C)=O)c2c(c1C)CC[C@@H]1[C@@H]2CC[C@]2(C)[C@@H](OC(C)=O)CC[C@@H]12` , TGI: 30.4

====

// reported TGI per item
System: LOX IMVI melanoma
procedure.details: NCI tumour cell line growth inhibition, 48 h

Recorded result, `Cn1c(=O)c2c(n(C)c1=O)n1c(=O)c3ccccc3nc1n2C` , TGI: > 100 µM

Recorded result, `CCN(CCCl)c1ccc(NC(=O)c2cc(C(=O)NCCN(C)C)cc(C(=O)Nc3ccc(N(CC)CCCl)cc3)c2)cc1` , TGI: 12.8 µM

Recorded result, `COc1ccc(-c2cc(-c3ccc(Nc4ccnc5cc(C(F)(F)F)ccc45)cc3)nc(N)c2C#N)c2ccccc12` , TGI: > 100 µM

Recorded result, `CC1=C(C(=O)OC(C)(C)C)C(c2ccc([N+](=O)[O-])cc2)C(C(=O)OC(C)(C)C)=C(C)N1` , TGI: 32.9 µM

Recorded result, `COc1ccc(Cl)cc1Nc1nc(C(F)(F)F)ccc1C(=O)N/N=C/c1ccc(Cl)cc1` , TGI: > 100 µM

Recorded result, CC(=O)OC1C(C)OC(OC2C[C@](O)(C(C)=O)Cc3c(O)c4c(c(O)c32)C(=O)c2ccccc2C4=O)C(F)C1OC(C)=O (some centres undefined) , TGI: 3.65 µM

Recorded result, `COC(=O)/C(=C/c1ccc(OC)cc1)c1cc(OC)c(OC)c(OC)c1` , TGI: > 100 µM

Recorded result, `COc1cc2c(cc1OCCCN1CCN(CCCn3c4ccccc4c4ccccc43)CC1)N=C[C@@H]1CCCN1C2=O` , TGI: 0.426 µM

Recorded result, `O=C1c2sccc2C(=O)c2c(CO)csc21` , TGI: 10.6 µM

Recorded result, `Cc1c(C(=O)C/C(=N/NC(=O)CC#N)C(N)=O)[n+](=O)c2ccccc2n1[O-]` , TGI: > 100 µM

Recorded result, COC(=O)N/N=C(\c1nc2ccc(Cl)cc2[nH]c1=O)C(O)c1ccc([N+](=O)[O-])cc1 (centres undefined) , TGI: > 100 µM

Recorded result, `O=C(Nc1ccccc1)Oc1ccccc1C1CCCCC1` , TGI: 26.8 µM

Recorded result, `Cn1nc(-c2ccccc2)c(C(=O)/C=C/c2ccccc2)c(N2CCCC2)c1=O` , TGI: 88.2 µM

Recorded result, `Cc1c(N(Cc2ccccc2)Cc2ccccc2)nc(S(C)(=O)=O)nc1S(C)(=O)=O` , TGI: 3.24 µM

Recorded result, `CCn1c(SC)nnc1-c1cc2c([nH]c3ccccc32)c(-c2cccc(O)c2)n1` , TGI: 29.1 µM

Recorded result, `CCCCCCCCCCCCCCCC(=O)NCC(OCC)OCC` , TGI: > 100 µM

Recorded result, `CCCCCCCCCCCC1=C(O)C(=O)C=C(O)C1=O` , TGI: 38 µM

Recorded result, `CC(=O)Oc1cc(OC(C)=O)c2c(c1C)CC[C@@H]1[C@@H]2CC[C@]2(C)[C@@H](OC(C)=O)CC[C@@H]12` , TGI: 34.2 µM

Recorded result, `COC(=O)c1ccccc1NCc1cc(O)ccc1O` , TGI: 32 µM

Recorded result, `COc1ccc(NC(=S)Nc2cccc(C)n2)cc1` , TGI: > 100 µM

Recorded result, `O=C(CO[N+](=O)[O-])OCC(=O)c1ccccc1` , TGI: > 100 µM

Recorded result, `Cc1nc(-c2cccnc2)sc1C(=O)/C=C/c1ccc(Cl)cc1Cl` , TGI: > 100 µM

Recorded result, `COc1cccc2c(Nc3ccc(C(=O)NCCN4CCNCC4)cc3)cc(-c3ccccc3)nc12` , TGI: 45.9 µM

Recorded result, `CCOC(=O)c1ccc(-c2cccs2)[nH]1` , TGI: > 100 µM
